- Tested On: Oxysterols receptor LXR-alpha (Homo sapiens)
- Sequence (Q13133 whole entry, the tested form may be a part): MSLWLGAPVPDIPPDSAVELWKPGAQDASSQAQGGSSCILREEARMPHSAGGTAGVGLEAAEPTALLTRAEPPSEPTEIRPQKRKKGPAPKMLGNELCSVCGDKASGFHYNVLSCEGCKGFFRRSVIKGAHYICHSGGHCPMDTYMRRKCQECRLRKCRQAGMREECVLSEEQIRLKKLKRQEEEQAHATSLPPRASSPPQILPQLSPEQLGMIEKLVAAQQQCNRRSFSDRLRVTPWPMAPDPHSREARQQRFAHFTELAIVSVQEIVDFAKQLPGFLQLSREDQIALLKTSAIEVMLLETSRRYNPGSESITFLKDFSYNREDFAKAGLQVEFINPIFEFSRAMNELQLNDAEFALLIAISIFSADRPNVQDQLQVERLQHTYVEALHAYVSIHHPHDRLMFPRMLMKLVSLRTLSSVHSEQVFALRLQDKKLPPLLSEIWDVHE
- Assay Comment: Agonist activity at LXRalpha (unknown origin) by Gal4-Luc reporter gene assay
pEC50: −log10 of the molar value.
Metric Name: pEC50

> print(dat)
                           substance.smiles  assay.result
1  O=C(N1CC[C@@]2(S(=O)(=O)c3ccc(F)cc3)c3ccc(C(F)(C(F)(F)F)C(F)(F)F)cc3CC[C@@H]12)C1(O)CCS(=O)(=O)CC1        < 5.12

---

- Assay Comment: Half life in dog at 1 mg/kg, iv
- Type: ADME, organism-based, Canis lupus familiaris
- Condition Label: in vivo
Metric Name: half-life (h)

> print(dat)
                           substance.smiles  metric.name  unit.spec  assay.result
1  O=C(N1CC[C@@]2(S(=O)(=O)c3ccc(F)cc3)c3ccc(C(F)(C(F)(F)F)C(F)(F)F)cc3CC[C@@H]12)C1(O)CCS(=O)(=O)CC1    half-life          h            87
